# Test system: Homo sapiens (human subject panel, olfactory perception)
# experiment: perceived odor intensity rating (rating 0-100); higher = stronger perceived smell
# recorded-conditions: odor dilution in paraffin oil: 1/10
We begin with a simple list: items and their reported perceived odor intensity rating.
# answer = number (no unit)

compound: O=C(OCCc1ccccc1)c1ccccc1 [Phenethyl benzoate]
test-target: Homo sapiens (human subject panel, olfactory perception)
measured: 38

compound: C/C(=C\CO)CCC[C@H](C)CCC[C@H](C)CCCC(C)C
test-target: Homo sapiens (human subject panel, olfactory perception)
measured: 68.8

compound: CCCCCCCCCCCO
test-target: Homo sapiens (human subject panel, olfactory perception)
measured: 74.9

compound: OCc1ccccc1
test-target: Homo sapiens (human subject panel, olfactory perception)
measured: 74.2

compound: CC(C)=O
test-target: Homo sapiens (human subject panel, olfactory perception)
measured: 37

Query string: Observed perceived odor intensity rating on Homo sapiens (human subject panel, olfactory perception) for CCCCC(CC)C(=O)O (stereo unspecified) , please.
Result string: 73.7

Query string: Observed perceived odor intensity rating on Homo sapiens (human subject panel, olfactory perception) for O=Cc1ccc(O)cc1 [4-Hydroxybenzaldehyde] , please.
Result string: 51.6

* * *

# Test system: Homo sapiens (human subject panel, olfactory perception)
# experiment: perceived odor intensity rating (rating 0-100); higher = stronger perceived smell
# recorded-conditions: odor dilution in paraffin oil: 1/1,000
We begin with a simple list: items and their reported perceived odor intensity rating.
# answer = number (no unit)

Query string: Fill in: perceived odor intensity rating of `CCC(C)=O` is ___
Result string: 33

* * *

# Test system: Homo sapiens (human subject panel, olfactory perception)
# experiment: perceived odor intensity rating (rating 0-100); higher = stronger perceived smell
# recorded-conditions: odor dilution in paraffin oil: 1/1,000
Would you mind sorting the entries by perceived odor intensity rating according to these classes? low: < 50; intermediate: ≥ 50 and < 70; high: ≥ 70

Some solved cases for reference:
compound: CCCCC(CC)C(=O)O (stereo unspecified)
class: low
--
compound: CCc1nccnc1C
class: high
--
compound: CCCOC(C)=O [propyl acetate]
class: low
--
compound: CCSSCC [Diethyl disulfide]
class: high
--
compound: CC(=O)OCc1ccccc1 [benzyl acetate]
class: intermediate
--
compound: O=C1CCCCCN1
class: low
--
compound: COc1ccc(COC(C)=O)cc1 [Anisyl acetate]
class: intermediate
--
compound: CCC(=O)OC/C=C/c1ccccc1 [trans-Cinnamyl propionate]
class: low
--
compound: c1coc(CSCc2ccco2)c1
class: high
--
compound: CCCCCCCC(=O)OC [Methyl caprylate]
class: low

Here's the next entry for you.
Query string: Pick a category. Item: `C=CCCC(=O)O`
Result string: high

* * *

# Tested on: Homo sapiens (human subject panel, olfactory perception)
# experiment: perceived odor intensity rating (rating 0-100); higher = stronger perceived smell
# recorded-conditions: odor dilution in paraffin oil: 1/1,000
Counter-ions that a name gives are not always drawn.
Everything with perceived odor intensity rating lower than 50 is NO; everything else, including exactly 50, is YES.

compound: CC(=O)OCC(C)C [isobutyl acetate]
class: YES

compound: COC(=O)c1ccccc1N [Methyl anthranilate]
class: YES

compound: CC(=O)OCCC1=CCC2CC1C2(C)C (configuration not stated) [Nopol acetate]
class: YES

compound: C=CC(O)CCCC (configuration not stated)
class: YES

compound: C=CCCCCCC
class: NO

Query string: Decide: is the reported value of perceived odor intensity rating for Cc1ncc(C[n+]2csc(CCO)c2C)c(N)n1 [Thiamine hydrochloride] equal to or greater than 50?
Result string: YES

Query string: Decide: is the reported value of perceived odor intensity rating for O=C1CCCO1 [4-Hydroxybutanoic acid lactone] equal to or greater than 50?
Result string: NO

Query string: Decide: is the reported value of perceived odor intensity rating for CCOC(=O)C(C)CC (configuration not stated) [Ethyl 2-methylbutyrate] equal to or greater than 50?
Result string: YES

Query string: Decide: is the reported value of perceived odor intensity rating for `O=C1CCCC1` equal to or greater than 50?
Result string: YES

Query string: Decide: is the reported value of perceived odor intensity rating for CCCCCCCCCCCCCC(=O)OCC [Ethyl myristate] equal to or greater than 50?
Result string: NO

Query string: Decide: is the reported value of perceived odor intensity rating for `NCC(=O)O` equal to or greater than 50?
Result string: NO

Query string: Decide: is the reported value of perceived odor intensity rating for `CS(C)(=O)=O` equal to or greater than 50?
Result string: NO

Query string: Decide: is the reported value of perceived odor intensity rating for C=C(C)C1CC=C(C)C(OC(C)=O)C1 (configuration not stated) [carvyl acetate] equal to or greater than 50?
Result string: YES

Query string: Decide: is the reported value of perceived odor intensity rating for CC(=O)OCCc1ccccc1 [Phenethyl acetate] equal to or greater than 50?
Result string: YES

Query string: Decide: is the reported value of perceived odor intensity rating for CCC(C)C1CCCCC1=O (configuration not stated) equal to or greater than 50?
Result string: YES

Query string: Decide: is the reported value of perceived odor intensity rating for CCCCCCCCCCCC(=O)O [Lauric acid (replicate)] equal to or greater than 50?
Result string: NO

Query string: Decide: is the reported value of perceived odor intensity rating for `Cc1ccc(C=O)o1` equal to or greater than 50?
Result string: YES

Query string: Decide: is the reported value of perceived odor intensity rating for `CC(C)O` equal to or greater than 50?
Result string: NO

Query string: Decide: is the reported value of perceived odor intensity rating for `CC(=O)c1cc(C)sc1C` equal to or greater than 50?
Result string: YES

Query string: Decide: is the reported value of perceived odor intensity rating for `Cc1nc(C)c(C)nc1C` equal to or greater than 50?
Result string: NO

Query string: Decide: is the reported value of perceived odor intensity rating for `Cc1ccc2ncccc2c1` equal to or greater than 50?
Result string: YES
